# targetDesc: T1, Tyrosine-protein kinase transmembrane receptor ROR1 (Long Isoform), human, on the cell surface (human, UniProt Q01973 30-937)
# T1 construct: Endogenous ROR1 on the human cell lines A549, HT29, H69 and HEK293 and on CLL cells from a patient; also called cell-surface human ROR1; full-length ROR1
# T1 sequence (Q01973 30-937 limits assumed): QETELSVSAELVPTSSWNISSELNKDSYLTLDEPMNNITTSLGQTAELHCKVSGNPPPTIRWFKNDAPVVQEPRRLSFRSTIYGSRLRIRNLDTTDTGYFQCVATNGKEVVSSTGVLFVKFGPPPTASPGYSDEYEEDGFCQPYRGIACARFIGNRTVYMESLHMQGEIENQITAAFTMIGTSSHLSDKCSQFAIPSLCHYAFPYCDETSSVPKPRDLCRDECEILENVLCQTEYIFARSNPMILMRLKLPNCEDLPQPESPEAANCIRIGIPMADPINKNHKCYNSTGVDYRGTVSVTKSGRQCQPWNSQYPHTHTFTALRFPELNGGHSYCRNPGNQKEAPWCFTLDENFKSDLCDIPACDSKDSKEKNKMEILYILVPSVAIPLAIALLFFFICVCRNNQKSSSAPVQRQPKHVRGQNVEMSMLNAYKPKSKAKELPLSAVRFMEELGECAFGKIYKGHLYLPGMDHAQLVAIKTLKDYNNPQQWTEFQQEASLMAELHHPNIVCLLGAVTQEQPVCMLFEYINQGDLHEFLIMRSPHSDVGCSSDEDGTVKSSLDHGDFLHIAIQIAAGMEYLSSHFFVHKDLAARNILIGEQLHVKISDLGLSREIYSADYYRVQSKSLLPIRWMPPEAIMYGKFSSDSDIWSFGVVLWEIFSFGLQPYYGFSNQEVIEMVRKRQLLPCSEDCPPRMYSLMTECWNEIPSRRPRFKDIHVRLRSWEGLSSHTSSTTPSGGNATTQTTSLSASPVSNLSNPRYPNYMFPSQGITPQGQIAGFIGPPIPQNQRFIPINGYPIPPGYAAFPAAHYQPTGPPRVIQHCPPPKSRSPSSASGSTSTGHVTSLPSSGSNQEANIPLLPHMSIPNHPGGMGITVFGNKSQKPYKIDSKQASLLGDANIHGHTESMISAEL
# experimentDescription: flow cytometry on A549 cells (FIG. 5a)
propertyMeasured: binding result

binder	propertyMeasured	measValue
ROR1_A4 (Fab, V domains shown, The entries are called 'variable region' but as printed hold leader, V domain, constant domain and tag) VH: EVKLVESGGGLVKPGGSLKLSCAASGFTFSNYGMSWVRQTPERRLEWVAAMNNNGASTYYPDTVKGRFTISRDNAKNTLYLQMSSLRSEDTALYFCVRHNNYVDYAMDYWGQGTSVTVSS VL: DILLTQSPSSMYTSLGERVTITCKASQDINSYLSWFQQKPGKSPKTLIYRANKLVDGVPSRFSGSGSGQDYSLTISSLESEDMGIYYCLQYDEFPYTFGGGTKLEIKR	binding result	binds
ROR1_A6 (Fab, V domains shown, The entries are called 'variable region' but as printed hold leader, V domain, constant domain and tag) VH: EVMLVESGGGLVKPGGSLKLSCAASGFTFSPYAMSWVRQTPEKRLEWVAAINSNRGTTYYPDTVKGRFTISRDNAKNTLYLQMSSLRSEDTAFYYCVRHRYNNYDYAMDYWGQGTSVTVSS VL: DIVMSQSPSSMYASLGERVTITCKASQDINSYLSWFQQKPGKSPKTLTYRANRLVEGVPSRFSGSGSGQDYSLTISSLEYEDMGIYYCLQYDEFPYTFGGGTKLEIKR	binding result	binds
